test system: HCC 2998; assay: Cytotoxicity against human HCC2998 cells assessed as growth inhibition after 48 hrs by SRB assay; format: functional; conditions: HCC 2998, 48 h
testReadout: log10 GI50 (log10 of the value in nM)
Values reflect log10 of reported GI50 (nM).

Query: Output log10 GI50 of COc1cc(/C(C#N)=C/c2coc3ccccc23)cc(OC)c1OC
Reply: 3.62

Query: Output log10 GI50 of COc1cc(OC)cc(/C(C#N)=C/c2c[nH]c3ccccc23)c1
Reply: 2.32

Query: Output log10 GI50 of COc1ccc2[nH]cc(/C=C(\C#N)c3cc(OC)c(OC)c(OC)c3)c2c1
Reply: 2.08

Query: Output log10 GI50 of COc1cc(/C(C#N)=C/c2nc3ccccc3s2)cc(OC)c1OC
Reply: 2.47

Query: Output log10 GI50 of COc1ccc(/C(C#N)=C/c2c[nH]c3ccccc23)cc1OC
Reply: 4.10

Query: Output log10 GI50 of COc1ccc(/C(C#N)=C/c2cc3ccccc3o2)cc1OC
Reply: 3.37

Query: Output log10 GI50 of COc1cc(/C(C#N)=C/c2cc3ccccc3n2Cc2ccc(C#N)cc2)cc(OC)c1OC
Reply: 2.42

Query: Output log10 GI50 of COc1ccc(/C(C#N)=C/c2cc3ccccc3[nH]2)cc1OC
Reply: 2.56

Query: Output log10 GI50 of COc1cc(OC)cc(/C(C#N)=C/c2nc3ccccc3s2)c1
Reply: 3.92

Query: Output log10 GI50 of COc1cc(/C(C#N)=C/c2cc3ccccc3o2)cc(OC)c1OC
Reply: 1.00

Query: Output log10 GI50 of COc1cc(/C(C#N)=C/c2c[nH]c3ccccc23)cc(OC)c1OC
Reply: 2.03

Query: Output log10 GI50 of COc1cc(/C(C#N)=C/c2cc3ccccc3[nH]2)cc(OC)c1OC
Reply: 1.26

---

tested on: HL-60(TB); experiment: Cytotoxicity against human HL-60(TB) cells assessed as growth inhibition after 48 hrs by SRB assay; assay type: functional; conditions: HL-60, 48 h
So I've got a bunch of compounds here, and I need their GI50 values.

Query: Output GI50 of COc1cc(OC)cc(/C(C#N)=C/c2c[nH]c3ccccc23)c1
Reply: 31 nM

Query: Output GI50 of COc1cc(/C(C#N)=C/c2cc3ccccc3[nH]2)cc(OC)c1OC
Reply: < 10 nM

Query: Output GI50 of COc1cc(/C(C#N)=C/c2cc3ccccc3o2)cc(OC)c1OC
Reply: < 10 nM

Query: Output GI50 of COc1cc(/C(C#N)=C/c2nc3ccccc3s2)cc(OC)c1OC
Reply: 66 nM

Query: Output GI50 of COc1cc(/C(C#N)=C/c2coc3ccccc23)cc(OC)c1OC
Reply: 1030 nM

Query: Output GI50 of COc1ccc(/C(C#N)=C/c2cc3ccccc3o2)cc1OC
Reply: 481 nM

Query: Output GI50 of COc1ccc(/C(C#N)=C/c2cc3ccccc3[nH]2)cc1OC
Reply: 34 nM

Query: Output GI50 of COc1ccc(/C(C#N)=C/c2c[nH]c3ccccc23)cc1OC
Reply: 4570 nM

Query: Output GI50 of COc1cc(OC)cc(/C(C#N)=C/c2nc3ccccc3s2)c1
Reply: 345 nM

Query: Output GI50 of COc1cc(/C(C#N)=C/c2c[nH]c3ccccc23)cc(OC)c1OC
Reply: 48 nM

Query: Output GI50 of COc1ccc2[nH]cc(/C=C(\C#N)c3cc(OC)c(OC)c(OC)c3)c2c1
Reply: 59 nM

Query: Output GI50 of COc1cc(/C(C#N)=C/c2cc3ccccc3n2Cc2ccc(C#N)cc2)cc(OC)c1OC
Reply: 31 nM

---

assay: Cytotoxicity against human NCI-ADR-RES cells assessed as growth inhibition after 48 hrs by SRB assay; type: functional
So I've got a bunch of compounds here, and I need their GI50 values.
Hi! Could you send only the number? It should be in nM, unit omitted.

Query: Output GI50 of COc1cc(OC)cc(/C(C#N)=C/c2nc3ccccc3s2)c1
Reply: 1470

Query: Output GI50 of COc1cc(/C(C#N)=C/c2coc3ccccc23)cc(OC)c1OC
Reply: 382

Query: Output GI50 of COc1ccc(/C(C#N)=C/c2cc3ccccc3[nH]2)cc1OC
Reply: 40

Query: Output GI50 of COc1ccc(/C(C#N)=C/c2c[nH]c3ccccc23)cc1OC
Reply: 1700

Query: Output GI50 of COc1cc(/C(C#N)=C/c2cc3ccccc3n2Cc2ccc(C#N)cc2)cc(OC)c1OC
Reply: 73

Query: Output GI50 of COc1ccc2[nH]cc(/C=C(\C#N)c3cc(OC)c(OC)c(OC)c3)c2c1
Reply: 37

Query: Output GI50 of COc1cc(/C(C#N)=C/c2c[nH]c3ccccc23)cc(OC)c1OC
Reply: 39

Query: Output GI50 of COc1ccc(/C(C#N)=C/c2cc3ccccc3o2)cc1OC
Reply: 317

Query: Output GI50 of COc1cc(/C(C#N)=C/c2nc3ccccc3s2)cc(OC)c1OC
Reply: 59

Query: Output GI50 of COc1cc(OC)cc(/C(C#N)=C/c2c[nH]c3ccccc23)c1
Reply: 33

---

assay: Cytotoxicity against human HCT116 cells assessed as growth inhibition after 48 hrs by SRB assay; assay type: functional; settings: HCT-116, 48 h
testReadout: log10 of GI50 (log10 of the value in µM)
Values reflect log10 of reported GI50 (µM).

Query: Output log10 of GI50 of COc1cc(/C(C#N)=C/c2coc3ccccc23)cc(OC)c1OC
Reply: -0.29

Query: Output log10 of GI50 of COc1ccc(/C(C#N)=C/c2cc3ccccc3[nH]2)cc1OC
Reply: -1.36

Query: Output log10 of GI50 of COc1ccc(/C(C#N)=C/c2c[nH]c3ccccc23)cc1OC
Reply: 1.55

Query: Output log10 of GI50 of COc1ccc(/C(C#N)=C/c2cc3ccccc3o2)cc1OC
Reply: -0.38

Query: Output log10 of GI50 of COc1cc(OC)cc(/C(C#N)=C/c2c[nH]c3ccccc23)c1
Reply: -1.38
